- run description: LDH cell viability assay, keratinocytes
- Format: cell-based, human
- test conditions: human, HaCaT keratinocytes, 30 µg/mL, read-out: Cell Viability (%) ± SD
readout kind: viability at 24 h, 30 µg/mL

Qu. Provide only the value of recorded viability at 24 h, 30 µg/mL for C=C1C(=O)O[C@H]2[C@H]1[C@@H](O)[C@H](OC(=O)CC(C)C)[C@H](C)CCC(=O)[C@](C)(O)[C@@H]2OC(=O)C(C)C [Compound 3]
Ans. 0%

====

- run description: LDH cell viability assay, keratinocytes
- Assay type: cell-based, human
- test conditions: human, HaCaT keratinocytes, 10 µg/mL, read-out: Cell Viability (%) ± SD
readout kind: viability at 24 h, 10 µg/mL (%)
Provide only the numeric value, understood in %.

Qu. Tell me viability at 24 h, 10 µg/mL reported for C=C1C(=O)O[C@H]2[C@H]1[C@@H](O)[C@H](OC(=O)CC(C)C)[C@H](C)CCC(=O)[C@](C)(O)[C@@H]2OC(=O)C(C)C
Ans. 30.5

Values from paper PMC8347481
